- TARGET_ENTITY: KHS/MAP4K5 (Homo sapiens)
- Sequence (Q9Y4K4 whole entry): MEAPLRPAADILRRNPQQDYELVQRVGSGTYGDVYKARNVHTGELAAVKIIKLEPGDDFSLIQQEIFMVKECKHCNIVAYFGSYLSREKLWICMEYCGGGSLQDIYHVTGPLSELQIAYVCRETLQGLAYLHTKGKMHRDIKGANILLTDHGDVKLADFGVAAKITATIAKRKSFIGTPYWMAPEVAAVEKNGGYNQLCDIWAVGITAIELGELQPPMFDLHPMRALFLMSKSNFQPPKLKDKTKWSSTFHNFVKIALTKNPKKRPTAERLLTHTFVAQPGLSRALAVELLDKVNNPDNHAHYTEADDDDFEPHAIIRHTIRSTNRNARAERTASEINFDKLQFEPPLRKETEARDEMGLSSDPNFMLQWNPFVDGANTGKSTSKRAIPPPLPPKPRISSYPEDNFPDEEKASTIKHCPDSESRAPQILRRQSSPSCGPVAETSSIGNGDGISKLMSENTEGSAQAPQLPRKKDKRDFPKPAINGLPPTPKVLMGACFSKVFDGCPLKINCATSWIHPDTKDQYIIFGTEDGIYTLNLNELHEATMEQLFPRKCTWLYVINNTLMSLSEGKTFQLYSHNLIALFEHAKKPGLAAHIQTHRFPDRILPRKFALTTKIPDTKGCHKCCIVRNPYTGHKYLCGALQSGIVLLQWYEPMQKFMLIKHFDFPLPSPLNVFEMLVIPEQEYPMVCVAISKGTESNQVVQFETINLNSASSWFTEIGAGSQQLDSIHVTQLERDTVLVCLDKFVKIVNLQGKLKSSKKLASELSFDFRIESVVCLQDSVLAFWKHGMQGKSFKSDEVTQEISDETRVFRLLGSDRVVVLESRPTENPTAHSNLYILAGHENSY
- ASSAY_NAME: Kinase selectivity panel, KHS/MAP4K5
- Type: biochemical
- EXPERIMENTAL_PARAMETERS: read-out: pIC50 KHS/MAP4K5 (converted)
READOUT: IC50 (µM)
Provide only the numeric value, understood in µM.

Lookup result for `COCCOc1ccc(-c2cn(-c3ccncc3)c3nc[nH]c(=O)c23)cc1` ; measured IC50: 0.794

Lookup result for `COCCOc1ccc(-c2cn(-c3cccnc3)c3nc[nH]c(=O)c23)cc1` ; measured IC50: 1.58

Lookup result for `CC(C)(O)CCOc1ccc(-c2cn(-c3cccnc3)c3nc[nH]c(=O)c23)cc1` ; measured IC50: 0.316

Lookup result for O=c1[nH]cnc2c1c(-c1ccc(OCC(O)CN3CCOCC3)cc1)cn2-c1cccnc1 (centres unmarked) ; measured IC50: 0.2

Lookup result for `COCCOc1ccc(-c2cn(-c3cccc(F)c3)c3nc[nH]c(=O)c23)cn1` ; measured IC50: 1

----------
- TARGET_ENTITY: human MAP4K4 kinase domain (Homo sapiens, UniProt O95819)
- Construct: 0.5 nM human MAP4K4 kinase domain (Invitrogen); purchased Invitrogen
- Sequence (O95819 25-289 limits assumed): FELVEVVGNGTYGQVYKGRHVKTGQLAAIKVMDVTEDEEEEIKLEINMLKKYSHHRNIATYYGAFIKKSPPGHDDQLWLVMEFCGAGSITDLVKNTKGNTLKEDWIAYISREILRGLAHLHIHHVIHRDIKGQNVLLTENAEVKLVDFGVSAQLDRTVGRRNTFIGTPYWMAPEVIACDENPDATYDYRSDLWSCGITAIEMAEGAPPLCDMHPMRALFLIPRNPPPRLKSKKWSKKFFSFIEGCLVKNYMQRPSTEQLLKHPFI
- ASSAY_NAME: MAP4K4 kinase activity, CisBio HTRF Transcreener ADP assay
- Format: biochemical
- EXPERIMENTAL_PARAMETERS: IC50 category; ATP at Km (10 μM), 0.5 nM kinase domain, 2 h; read-out: MAP4K4
READOUT: IC50

With human MAP4K4 kinase domain (Homo sapiens, UniProt O95819) as the test system, `COCCn1cc(-c2cn(-c3ccccc3)c3nc[nH]c(=O)c23)cn1` showed IC50 of ≤ 100 nM

With human MAP4K4 kinase domain (Homo sapiens, UniProt O95819) as the test system, `O=c1[nH]cnc2c1c(-c1ccccc1)cn2-c1cccnc1` showed IC50 of 100 to 1000 nM

With human MAP4K4 kinase domain (Homo sapiens, UniProt O95819) as the test system, `COCCOc1ccc(-c2cn(-c3cncc(F)c3)c3nc[nH]c(=O)c23)cc1` showed IC50 of ≤ 100 nM

With human MAP4K4 kinase domain (Homo sapiens, UniProt O95819) as the test system, `CC(C)(O)COc1ccc(-c2cn(-c3ccncc3)c3nc[nH]c(=O)c23)cc1` showed IC50 of ≤ 100 nM

----------
- TARGET_ENTITY: human MAP4K4 kinase domain (Homo sapiens, UniProt O95819)
- Construct: 0.5 nM human MAP4K4 kinase domain (Invitrogen); purchased Invitrogen
- ASSAY_NAME: MAP4K4 kinase activity, CisBio HTRF Transcreener ADP assay
- Format: biochemical
- EXPERIMENTAL_PARAMETERS: IC50 category; ATP at Km (10 μM), 0.5 nM kinase domain, 2 h; read-out: MAP4K4
For each record, write down the corresponding IC50.

Lookup result for COc1ccc(-c2cn(-c3ccccc3)c3nc[nH]c(=O)c23)nn1 [Ex-104] ; measured IC50: > 1 µM

Lookup result for CC(=O)N1CC(n2cc(-c3cn(-c4ccccc4)c4nc[nH]c(=O)c34)cn2)C1 [Ex-60] ; measured IC50: ≤ 0.1 µM

Lookup result for O=c1[nH]cnc2c(-c3cncnc3)cn(-c3ccccc3)c12 [Ex-115] ; measured IC50: > 1 µM

Lookup result for CC(C)(O)CCOc1ccc(-c2cn(-c3cccnc3)c3nc[nH]c(=O)c23)cc1F [Ex-73] ; measured IC50: ≤ 0.1 µM

Lookup result for CN(C)CCCOc1ccc(-c2cn(-c3ccccc3)c3c(=O)[nH]cnc23)cn1 [Ex-114] ; measured IC50: 0.1 to 1 µM

Lookup result for COCCNc1ccc(-c2cn(-c3ccncc3)c3nc[nH]c(=O)c23)cn1 [Ex-14] ; measured IC50: ≤ 0.1 µM

Lookup result for O=c1[nH]cnc2c1c(-c1cnc(N3CC(CO)C3)nc1)cn2-c1ccccc1 [Ex-51] ; measured IC50: 0.1 to 1 µM
